- Experimental protocol: Stat Signaling Pathway (AID 446);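 also: ME-180 cervical cancer cells given 40 pM IL-6 alongside compound; SIE-controlled beta-lactamase reporter measured as 460/530 nm FRET emission ratio; % is scaled to controls: 0 for no effect and ±100 for the full control effect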
- Test parameters: ME-180 (cervical carcinoma) SIE beta-lactamase reporter, IL-6 stimulated, 5 h; at 38 µM (top of the series)
Inconclusive results are not listed. Active and inactive are the calls of the source. Calls follow the shape of the dose curve; as a rule, active = well fitted curve in either direction with a large enough effect (not every such curve was filed as active); inconclusive = small, poorly fitted or top-dose-only effect, or another doubt; inactive = flat fitted curve, though single readings scatter.
The categories you may choose from are active, inactive

See these solved cases before continuing.
>  <Mol>
Clc1cccc(N2CCNCC2)c1

>  <Answer label>
inactive

$$$$
>  <Mol>
NCC1(CC(=O)O)CCCCC1

>  <Answer label>
inactive

$$$$

Q: Any idea what this test logged for "CCn1cc(C(=O)O)c(=O)c2ccc(C)nc21" ?
Result: inactive

Q: Which outcome was assigned to "Cc1ccc(S(=O)(=O)N[C@@H](CCCCN)C(=O)CCl)cc1" in this test?
Result: active

Q: Field: outcome | Entry: "Nc1ccncc1"
Result: inactive

Q: Returns: the outcome recorded for "N#CC(C#N)=Cc1ccc(O)c(O)c1" in this assay.
Result: inactive

Q: Recorded call for "CCCN1CCC[C@@H]2Cc3nc(N)ncc3C[C@H]21" ?
Result: inactive

Q: Dear all, I need the recorded test outcome for "c1ccc(C2CC2)c(OCC2=NCCN2)c1" , thank you.
Result: inactive

----------
- Tested on: CRL-7250
- Experimental protocol: Cytotoxic Profiling of Annotated Libraries Using Quantitative High-Throughput Screening (AID 1296008); also: % is scaled to controls: 0 for no effect and ±100 for the full control effect; nearly all actives have a fitted effect of over 60% in size
- Test parameters: Five cell lines viability, CellTiter-Glo ATP luminescence, 48-72 h; hits give low values
Records with an inconclusive call do not appear. The source made the active and inactive calls. The call rests on the fitted dose curve; in most records, active means well fitted inhibition curve with a large enough effect; inconclusive means small, poorly fitted or top-dose-only effect; inactive means flat fitted curve, though single readings scatter.
Assay metric: max response

Here is how some compounds turned out for max response.
>  <Compound>
CC(C)(N)Cc1ccc(Cl)cc1

>  <Result>
0.791% (inactive)

$$$$
>  <Compound>
Oc1ccc(Cl)cc1Cc1ccccc1

>  <Result>
-21.4% (inactive)

$$$$
>  <Compound>
O=P1(NCCCl)OCCCN1CCCl (stereo not drawn)

>  <Result>
-12.2% (inactive)

$$$$

Q: What value of max response has been reported for the following compound? "CCCN1CCC[C@@H]2Cc3[nH]ncc3C[C@H]21"
Result: 4.64% (inactive)

Q: Could you tell me which max response is on file for COC[C@H]1OC(=O)c2coc3c2[C@@]1(C)C1=C(C3=O)C2CCC(=O)[C@@]2(C)C[C@H]1OC(C)=O (stereo partly drawn) ?
Result: -6.6% (inactive)

Q: Consider the compound shown here: "CCN(CC)CCN1C(=O)CN=C(c2ccccc2F)c2cc(Cl)ccc21" What is its recorded max response?
Result: -7.13% (inactive)

Q: // query max response value for entry "CC(=O)Nc1cc([As](=O)(O)O)ccc1O"
Result: -3.67% (inactive)

----------
- Test parameters: Ebola virus entry assay, blue channel fluorescence
Activity calls are given as the source filed them.
Your answer must be one of the following: class 1 for active, class 0 for inactive

Consider the following illustrative entries.
>  <Compound>
COc1ccc(Cc2nccc3cc(OC)c(OC)cc23)cc1OC

>  <Answer label>
class 0

$$$$
>  <Compound>
CNS(=O)(=O)CCc1ccc2[nH]cc(C3CCN(C)CC3)c2c1

>  <Answer label>
class 0

$$$$
>  <Compound>
O=C(CCCCCCC(=O)Nc1ccccc1)NO

>  <Answer label>
class 0

$$$$
>  <Compound>
C=C(c1ccc(C(=O)O)cc1)c1cc2c(cc1C)C(C)(C)CCC2(C)C

>  <Answer label>
class 0

$$$$
>  <Compound>
CNCC(O)c1ccc(O)cc1 (stereo unspecified)

>  <Answer label>
class 0

$$$$
>  <Compound>
COc1ccc(C(=O)c2c(C)n(CCN3CCOCC3)c3ccccc23)cc1

>  <Answer label>
class 1

$$$$
>  <Compound>
NC(=O)C(c1ccccc1)(c1ccccc1)[C@@H]1CCN(CCc2ccc3c(c2)CCO3)C1

>  <Answer label>
class 1

$$$$
>  <Compound>
COC(=O)C1=C(C)NC(C)=C(C(=O)OCCN(C)Cc2ccccc2)C1c1cccc([N+](=O)[O-])c1 (stereo unspecified)

>  <Answer label>
class 1

$$$$

Q: Hi, do you know how "CCOC(=O)C1(c2ccccc2)CCN(CCC(C#N)(c2ccccc2)c2ccccc2)CC1" came out in this test?
Result: class 1

Q: Tell me the assay call for "O=C(O)c1ccc(-n2nc(-c3ccccc3O)nc2-c2ccccc2O)cc1" please.
Result: class 0

Q: Check the results log: what was the call for Cc1c(OCC(F)(F)F)ccnc1CS(=O)c1nc2ccccc2[nH]1 (stereo unspecified) ?
Result: class 0

Q: Check the results log: what was the call for "O=[N+]([O-])c1ccc(O)c2ncccc12" ?
Result: class 1

Q: Tell me the assay call for "O=c1c(O)c(-c2ccc(O)c(O)c2)oc2cc(O)cc(O)c12" please.
Result: class 0

Q: I would be grateful if you could indicate the recorded call for "CC(=O)Nc1cc([As](=O)(O)O)ccc1O" .
Result: class 0

Q: What did this assay record as the result for "O=C1CCc2cc(OCCCCc3nnnn3C3CCCCC3)ccc2N1" ?
Result: class 0

Q: Lab log entry: "CCOc1ccc2ccccc2c1C(=O)N[C@@H]1C(=O)N2[C@@H]1SC(C)(C)[C@@H]2C(=O)O" — outcome as called in the assay?
Result: class 0

Q: Test call for this compound, please: "N[C@@H](Cc1ccc(N(CCCl)CCCl)cc1)C(=O)O"
Result: class 0

----------
- Assay system: Nucleoprotein (Lymphocytic choriomeningitis virus (strain Armstrong)) (UniProt P09992)
- Sequence (P09992 whole entry, looked up): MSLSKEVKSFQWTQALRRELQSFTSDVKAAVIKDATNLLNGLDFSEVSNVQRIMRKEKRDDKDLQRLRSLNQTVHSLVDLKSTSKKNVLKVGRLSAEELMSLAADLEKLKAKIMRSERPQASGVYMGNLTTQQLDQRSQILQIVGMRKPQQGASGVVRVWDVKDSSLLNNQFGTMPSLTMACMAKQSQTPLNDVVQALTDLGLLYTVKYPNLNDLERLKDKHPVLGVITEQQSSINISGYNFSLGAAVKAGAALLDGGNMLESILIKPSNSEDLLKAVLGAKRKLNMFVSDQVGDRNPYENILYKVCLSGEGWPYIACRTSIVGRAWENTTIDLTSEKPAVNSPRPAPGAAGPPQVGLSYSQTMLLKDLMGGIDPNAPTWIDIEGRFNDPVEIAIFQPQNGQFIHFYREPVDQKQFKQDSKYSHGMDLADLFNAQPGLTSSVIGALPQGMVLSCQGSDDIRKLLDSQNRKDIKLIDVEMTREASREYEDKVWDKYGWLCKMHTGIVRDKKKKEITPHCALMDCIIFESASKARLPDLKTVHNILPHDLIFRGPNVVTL
- Experimental protocol: qHTS for Inhibitors of the Functional Ribonucleoprotein Complex (vRNP) of Lymphocytic Choriomeningitis Arenaviruses (LCMV): LCMV Primary Screen - GLuc reporter signal (AID 1347086); also: % is scaled to controls: 0 for no effect and ±100 for the full control effect; nearly all actives have a fitted effect of over 70% in size
- Test parameters: LCMV minigenome vRNP cell assay, Gaussia luciferase reporter; series mostly up to 57.5 µM
Records with an inconclusive call do not appear. Activity calls are given as the source filed them. The call rests on the fitted dose curve.
Assay metric: outcome

Answered examples (5):
>  <Compound>
Cn1cnc2c(F)c(Nc3ccc(Br)cc3Cl)c(C(=O)NOCCO)cc21

>  <Result>
inactive

$$$$
>  <Compound>
C=C(CC)C(=O)c1ccc(OCC(=O)O)c(Cl)c1Cl

>  <Result>
inactive

$$$$
>  <Compound>
CN1CCC(=C2c3ccccc3C=Cc3ccccc32)CC1

>  <Result>
inactive

$$$$
>  <Compound>
CN(C)CCc1c[nH]c2ccc(C[C@H]3COC(=O)N3)cc12

>  <Result>
inactive

$$$$
>  <Compound>
Oc1cn2c(n1)Nc1ccc(Cl)c(Cl)c1C2

>  <Result>
inactive

$$$$

Then there is this compound:
Q: May I ask what outcome has been recorded for CNCCC(Oc1ccc(C(F)(F)F)cc1)c1ccccc1 (stereo unspecified) ?
Result: inactive

----------
- Test parameters: Ebola virus entry assay, ratio channel
Activity calls are given as the source filed them.
Outcomes you can answer with include only these: 1 (active), -1 (inactive)

Q: I'd appreciate the recorded outcome for "CN1CCN(CCCN2c3ccccc3Sc3ccc(Cl)cc32)CC1" from this test.
Result: 1

Q: What is the recorded call for this compound in the test? "CCCCCCC[N+](CC)(CC)CCCCc1ccc(Cl)cc1"
Result: -1

Q: Which result was noted for this compound in the test: "CN(C)c1nc(N(C)C)nc(N(C)C)n1"
Result: -1

Q: In this assay, the call recorded for "CC(C)(C)NC(=O)[C@H]1CC[C@H]2[C@@H]3CC[C@H]4NC(=O)C=C[C@]4(C)[C@H]3CC[C@]12C" was what?
Result: -1

Q: How did this test come out for "COC[C@@H](NC(C)=O)C(=O)NCc1ccccc1" ?
Result: -1

----------
- Experimental protocol: qHTS Screen of the MIPE 4.0 Collection Against Ewings Sarcoma (EW8) (AID 1259255); also: nearly all actives have a fitted effect of over 35% in size;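 as to viability: 100% = DMSO-treated cells and 0% = medium-only wells without cells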
- Test parameters: EW8 Ewing sarcoma viability, CellTiter-Glo, 48 h; series mostly up to 45.8 µM
Records with an inconclusive call do not appear. Activity calls are given as the source filed them. Calls come from the whole dose curve; as a rule, active = well fitted inhibition curve with a large enough effect; inconclusive = small, poorly fitted or top-dose-only effect; inactive = no such curve, though single readings can be large or run the other way.
// classify into 1 (yes) = active, 0 (no) = inactive

As a guide, the following entries are already answered.
>  <Molecule>
O=C1CC[C@@]2(O)[C@H]3Cc4ccc(O)c5c4[C@@]2(CCN3CC2CC2)[C@H]1O5

>  <Answer label>
0 (no)

$$$$
>  <Molecule>
C[C@@H]1[C@@H](CC(C[C@H]2O[C@@H]3O[C@]4(C)CC[C@@H]5[C@H](C)CC[C@@H]([C@H]2C)[C@@]35OO4)C[S+](=O)([O-])c2ccc(COC(=O)N(C)C)cc2)O[C@@H]2O[C@]3(C)CC[C@H]4[C@H](C)CC[C@@H]1[C@@]24OO3 (some centres not stated)

>  <Answer label>
1 (yes)

$$$$
>  <Molecule>
Cc1cccc(C)c1NC(=O)CN1CCCC1=O

>  <Answer label>
0 (no)

$$$$
>  <Molecule>
C[C@@H]1O[C@@H](O[C@H]2C[C@@H](O)[C@]3(CO)[C@H]4[C@H](O)C[C@]5(C)[C@@H](C6=CC(=O)OC6)CC[C@]5(O)[C@@H]4CC[C@]3(O)C2)[C@H](O)[C@H](O)[C@H]1O

>  <Answer label>
1 (yes)

$$$$
>  <Molecule>
CN1CCN(C(=O)O[C@H]2c3nccnc3C(=O)N2c2ccc(Cl)cn2)CC1

>  <Answer label>
0 (no)

$$$$
>  <Molecule>
Cn1cc(C2=C(c3cn(C4CCN(Cc5ccccn5)CC4)c4ccccc34)C(=O)NC2=O)c2ccccc21

>  <Answer label>
1 (yes)

$$$$
>  <Molecule>
CN(C)[C@@H]1C(=O)C(C(N)=O)=C(O)[C@@]2(O)C(=O)C3=C(O)c4c(O)cccc4[C@@](C)(O)[C@H]3C[C@@H]12

>  <Answer label>
1 (yes)

$$$$
>  <Molecule>
C#CCN(C)[C@H](C)Cc1ccccc1

>  <Answer label>
0 (no)

$$$$
>  <Molecule>
N[C@@H](Cc1ccc(N(CCCl)CCCl)cc1)C(=O)O

>  <Answer label>
1 (yes)

$$$$
>  <Molecule>
COc1ccc(C(CN(C)C)C2(O)CCCCC2)cc1 (configuration not stated)

>  <Answer label>
1 (yes)

$$$$

Q: # fetch the recorded call for "C=C(C)[C@H]1Cc2c(ccc3c2O[C@@H]2COc4cc(OC)c(OC)cc4[C@@H]2C3=O)O1" here
Result: 1 (yes)

Q: Assay result, entry "CN(C)CCN(C)CCc1ccc(Cl)c(Cl)c1" — outcome?
Result: 0 (no)

Q: Kindly provide the recorded test outcome for the following molecule: "Fc1ccc(C(OCCN2CCN(CCCc3ccccc3)CC2)c2ccc(F)cc2)cc1"
Result: 1 (yes)

Q: What was the test verdict on "CN(C)CCc1ccc(O)cc1" ?
Result: 0 (no)

Q: Test call, this molecule: CC(O)(CS(=O)(=O)c1ccc(F)cc1)C(=O)Nc1ccc(C#N)c(C(F)(F)F)c1 (configuration not stated)
Result: 1 (yes)

Q: Hello, I am checking results. What call was entered for CNCC(O)c1ccc(O)cc1 (configuration not stated) ?
Result: 0 (no)

Q: Hi, do you know how "O=C(O)C(=O)c1cn(Cc2ccccc2)c2ccc(-c3ccc(OC(F)(F)F)cc3)cc12" came out in this test?
Result: 0 (no)
